Hi there, I'd appreciate the recorded abundance fitness for every entry that follows.
B1: Syntaxin-binding protein 4, residues 493 to 538; numbered along this chain, Q6ZWJ1 (parent)
chain: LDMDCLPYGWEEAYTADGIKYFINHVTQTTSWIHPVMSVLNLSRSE

variants of: B1; assay: abundance fitness (aPCA) (normalised: wild type 0, dead -1); higher = more abundant; growth selection in yeast, the domain comes from the species named; details: Homo sapiens
Please give the numeric answer without any surrounding text.

## Task Recorded abundance fitness for W32Y , please?
## Result -0.33

## Task Recorded abundance fitness for V39I , please?
## Result -0.599

## Task Recorded abundance fitness for S38H , please?
## Result -0.678

## Task Recorded abundance fitness for E11I , please?
## Result -0.502

Origin of the recorded values: the Human Domainome abundance scans (Beltran et al. 2025)
